Sourced from the supplement of paper PMC9170038

System: MS2 coat protein
Assay: apparent KD of MS2 coat protein; designed switch direction (-1 OFF switch, 1 ON switch): -1; higher = weaker reporter binding
Settings: Eterna round: R95; input ligand: microRNA oligo, concentration not stated
Quantity Measured: apparent KD of MS2 coat protein (nM)
Answer format: numeric, nM implied, no suffix.

Here's what some known entries look like.
>>> quantitative_result("CUGAGCAGACGAAGAUCCAACAUGAGGAUCACCCAUGUCUCAAAAGCUUUUUGCUCGUCUUAUCCUUCUCUGUUCUC [Reisedzaqu] (puzzle: Sensor v3, turn-off variant 1)")
176
>>> quantitative_result("CAGUACUGAGGAUAUACAUGAGGAUCACCCAUGUGUUCCAGCUAGGAAACUAGCUAAAGUAGAAGGCAGUACUG [salish99_ex3_r3_092x] (puzzle: Exclusion 3)")
24.1

input: Look up and report measured apparent KD of MS2 coat protein (MS2 coat protein) for the following sequence: CCGUGGCAAGGAUAUACAUAGGAGAGGAAGGCAAGAGGAGGACAUGAGGAUCACCCAUGUAGAAGGUGCAGAUC [JR_Exclu2_Sub028] (puzzle: Exclusion 2)
output: 71.7

input: Look up and report measured apparent KD of MS2 coat protein (MS2 coat protein) for the following sequence: AGAGUGUGAGGAUAUAUGGUGAAGAUGAAGAAAGAGAAGGAGUAGAAGGUACAUGAGGAUCACCCAUGUUGAGG [JR_Exclu4_Sub071] (puzzle: Exclusion 4)
output: 47.8

input: Look up and report measured apparent KD of MS2 coat protein (MS2 coat protein) for the following sequence: GAAAACGCAGAGGAUAUUUCAGAUCAAAGCUGCAAAGAAGGCUGCACAUGAGGAUCACCCAUGUGGUCUUUAAA [Quesina] (puzzle: Exclusion 6)
output: 17.8
